For each of the compounds below, state its Percent Effect.
target: Ubiquitin-activating enzyme e1, putative (Leishmania donovani (strain BPK282A1)); experiment: Leishmania donovani Ubiquitin Activating Enzyme (LdE1); format: functional; design: scale not given: direction of the effect not stated beside the values; details: 30 µM
Potency and affinity values are given separately.
Could you give me the number in %? Just the number is fine.

Qu. State the recorded Percent Effect for this entry: Cc1noc(C)c1CN1CC[C@@H](OCC2CC2)[C@@H](Cc2ccccc2)C1
Ans. 13.3

Qu. Any idea what Percent Effect was measured for O=C1CC(c2cccnc2)C2(CCN(S(=O)(=O)C3CC3)CC2)N1 (centres undefined) ?
Ans. 8.11

Qu. Would you mind telling me what Percent Effect value was observed for Cc1csc(C2CCCN(C(=O)c3cc(Cl)c[nH]3)C2)n1 (centres undefined) ?
Ans. 5.41

Qu. Any idea what Percent Effect was measured for CNS(=O)(=O)c1cccc(CNC(=O)c2c(C)oc(C)c2C)c1 ?
Ans. 19

---

target: Sialic acid-binding Ig-like lectin 9 (Homo sapiens); experiment: Hs-Siglec9 ALPHAscreen SOP 20170721; parameters: scale not given: direction of the effect not stated beside the values; conditions: 10 µM
Measured parameter: Percent Effect
Write the quantity with the unit trailing the number.

Qu. Requested read-out: Percent Effect. Entry: CC(=O)N1CCN(c2ccc3ccc(C(=O)NC4CCCC4)cn23)CC1
Ans. 3.54%

Qu. Which Percent Effect reading was recorded for the molecule Cc1cc(CN2CCN(C(=O)NCc3nc(C)cs3)CC2)on1 ?
Ans. -8.19%

Qu. Quick one: Percent Effect of O=C1NC2(CCN(C(=O)Cc3ccsc3)CC2)CC1c1ccncc1 (stereo not drawn) ?
Ans. -7.01%

Qu. Data request, read-out Percent Effect, for O=C(c1ccncc1F)N1CCc2ncnc(-c3ccncc3)c2CC1
Ans. -1.21%

Qu. Recorded Percent Effect for Cc1noc([C@@H]2C[C@H]3OCC[C@H]3N(S(C)(=O)=O)C2)n1 , please?
Ans. 8.3%

Qu. # input molecule: Cc1cnn(CCNCc2ccccc2C#N)c1 ; wanted: its Percent Effect
Ans. 6.11%

Qu. Which value of Percent Effect has been reported for CCc1cnc(N2CC3(CCN(C(=O)c4ccoc4)C3)C2)nc1 in the records?
Ans. 3.13%

Qu. Dear colleague, I am looking for the recorded Percent Effect of the following molecule: CC(NC(=O)N(C)Cc1ccc(Cl)s1)c1ccccn1 (stereo not drawn)
Ans. -0.224%

---

molecular target: Proteasome subunit beta (Trypanosoma cruzi); experiment: Trypanosoma cruzi proteasome chymotrypsin-like activity (TcProtChymo) assay.; assay type: functional; parameters: scale not given: in the data most compounds retested in dose-response had high values; settings: 9.37 µM
Measured parameter: Percent Effect (%)
Could you give me the number in %? Just the number is fine.

Qu. Name the recorded Percent Effect for Cc1cnn(CC2CCCCN2C(=O)c2ccc3[nH]nnc3c2)c1 (stereo not drawn) .
Ans. 14.3

Qu. Param item = Cc1nc(CN2CCCN(C(=O)C3(C#N)CCCCC3)CC2)cs1 ; retrieve measured Percent Effect.
Ans. 7.12

Qu. Which Percent Effect is reported for this molecule? Cc1cccc(OCCC(=O)N(C)CCC#N)c1C
Ans. 23.1

Qu. Value lookup for Percent Effect; key = CNc1cc2c(nn1)CCN(C(=O)c1cc(F)cc(F)c1)C2
Ans. 6.06

Qu. Query: Percent Effect; subject: CN(C)CCOCC1CN(CC2CCOCC2)Cc2nnn(C)c21 (stereo not drawn)
Ans. 8.67

Qu. Please look up its Percent Effect: Cc1nocc1C(=O)N1CCc2c(CN(C)C(C)C)n[nH]c2C1
Ans. 20.3

Qu. Sample Cn1cccc1C(=O)N1CCc2ncnc(N3CCCC3)c2CC1 — what was its Percent Effect?
Ans. -0.264

Qu. Can you share its Percent Effect? I mean this molecule: Cc1noc(CCCC(=O)NC(C)c2ccccn2)n1 (stereo not drawn)
Ans. 6.52

Qu. Which measured Percent Effect value corresponds to Cc1nc(CN(C)C2CCCN(c3cccnn3)C2)no1 (stereo not drawn) ?
Ans. 9.29

Qu. # get_value(readout='Percent Effect', item= O=C(c1ccncc1)N1CCC(c2nc(O)cc(-c3cccnc3)n2)C1 (stereo not drawn) )
Ans. 8.55

Qu. // lookup Percent Effect for O=C(NCc1cc[nH]n1)N1CCN(c2ccccc2Cl)CC1
Ans. 14.1

Qu. Tell me the measured Percent Effect of O=C(c1ccc2c(c1)CCCC2)N1CCOCC1c1ncon1 (stereo not drawn) , please.
Ans. 9.37

Qu. Entry CN(C(=O)NCCCN1CCCC1)C1CCN(c2ccccc2)C1=O (stereo not drawn) has what Percent Effect?
Ans. 20.9

Qu. For O=C(CCc1nccs1)N1CCN(c2ccccc2F)CC1 , what is its reported Percent Effect?
Ans. -2.05

Qu. Param item = CN(Cc1cccc(F)c1)C1CCN(CCc2ccccn2)CC1 ; retrieve measured Percent Effect.
Ans. 9.34

Qu. Fill in: Percent Effect of COc1cccc(CN2C[C@@H]3COC[C@]3(COCc3ccncc3)C2)c1 is ___
Ans. 14.6

Qu. Entry O=C(NCc1ccncc1)N(Cc1ccccc1F)C1CC1 has what Percent Effect?
Ans. 17.1

Qu. // query Percent Effect value for entry C[S+]([O-])CCCNC(=O)c1cc(Br)c2c(c1)OCCO2 (stereo not drawn)
Ans. 2.62

Qu. Data request, read-out Percent Effect, for CN(CCN1CCCCC1)C(=O)c1cc(CN2CCOCC2)on1
Ans. 21.8

Qu. Please report the recorded Percent Effect for CC(C)c1ccc(OCCC(=O)N2CCC(CC(N)=O)CC2)cc1 .
Ans. 11

Qu. Which Percent Effect is reported for this molecule? Cc1cccc2[nH]c(C3CCN(C(=O)c4ccnn4C)CC3)nc12
Ans. 15.1

Qu. I'd like to know its Percent Effect. The molecule in question is Cc1ccc(C(=O)NCCCNS(C)(=O)=O)cc1-n1cccc1
Ans. 15.2

Qu. I would be grateful if you could share the reported Percent Effect for COc1ccc(CNCC2CC2)cc1F .
Ans. 3.47

Qu. Percent Effect for CC(C)CCN1CN=C(NS(=O)(=O)c2ccc(F)cc2)NC1 ?
Ans. 9.61

Qu. # Percent Effect lookup, item Cc1cc(CNC(=O)C2CCCCN2C(=O)OC(C)(C)C)no1 (stereo not drawn)
Ans. 1.29

Qu. Any idea what its Percent Effect is? The molecule is COc1cccc(OCC2CCCN(C(=O)c3cnc(C)nc3O)C2)c1 (stereo not drawn)
Ans. 7.24

Qu. Quick check: Percent Effect of O=C(Nc1ccc(F)cc1)N1C[C@H]2CC[C@@H]1CN(Cc1cccnc1)C2 ?
Ans. 13.3

Qu. So what does the record say about Percent Effect for O=C1N(CCCc2ccccc2)CCCC1(O)CNCc1ccccc1 (stereo not drawn) ?
Ans. 8.5

Qu. Using the record for CC(C)(C)c1nnc(CN2CCN(CC(O)c3ccccc3)CC2)o1 (stereo not drawn) , report its Percent Effect.
Ans. -6.31

Qu. Field request: Percent Effect | item: COc1ccc(C2(NC(=O)CCn3cncn3)CCCCC2)cc1
Ans. 11.2

Qu. Value lookup for Percent Effect; key = Cc1nnc2n1CCN(CCS(=O)(=O)c1ccccc1)C2
Ans. -2.03

Qu. Consider the molecule shown here: Cc1cc(C)c(CNC(=O)N2CCCC2c2cccn2C)c(=O)[nH]1 (stereo not drawn) What is its recorded Percent Effect?
Ans. 10.6

Qu. Entry CCOCCCNC(=O)c1cc(C)nc(N2CCCC2)n1 : reported Percent Effect = ?
Ans. 5.36

Qu. Give the measured Percent Effect of N#Cc1ccc(C(=O)N2CC[C@H]3[C@@H]2CCC(=O)N3c2ccccc2)cc1 .
Ans. 6.08

Qu. # get_value(readout='Percent Effect', item= O=C1CCC2(CCN(Cc3cc(F)ccc3Cl)CC2)CN1C1CCCC1 )
Ans. 18.1

Qu. Could you share which Percent Effect value was measured for CCn1cc(NC(=O)NCC(C)O)cn1 (stereo not drawn) ?
Ans. 5.65

Qu. Given the molecule Cc1nn(C)c(C)c1-c1cncc(C2CCN(S(C)(=O)=O)CC2)n1 , what is its reported Percent Effect?
Ans. -3.96

Qu. Return reported Percent Effect; argument: CCN(Cc1ccc2c(c1)OCO2)C(=O)NC(C)Cn1cccn1 (stereo not drawn)
Ans. 8.78
